Read-out: Interleukin-1 alpha (IL1a), IL1A (gene 3552)
Test: BSK_BE3C_IL1a: BioMAP Diversity Plus: BE3C Assay for Interleukin-1 alpha (IL1a) Biomarker Activity (AID 2283016)
Conditions: primary human bronchial epithelial cells; actives raise or lower the signal
Active and inactive are the calls of the source. How the source made its calls: active means hit-call score of the fitted dose curve at least 0.9, where 1 is the maximum; inactive means score below 0.9.
Select the correct class. Options are Y = active, N = inactive and nothing else.

Past entries and their recorded results:
For Cc1cc(C)c(O)c(C)c1 , which call appears in the assay record? N

One more molecule: O=C(O)Cc1cc(I)c(Oc2cc(I)c(O)c(I)c2)c(I)c1 Y

Request: O=[N+]([O-])c1ccc(O)cc1 N

Likewise for CCC(=C(c1ccc(O)cc1)c1ccc(OCCN(C)C)cc1)c1ccccc1 ? Y

Another: OCCC(F)(F)C(F)(F)C(F)(F)C(F)(F)C(F)(F)C(F)(F)F N

Now consider CCN(CC)CCNc1ccc(CNC=O)c2sc3ccc(OC)cc3c(=O)c12 . Y

Try this molecule next: ClC1=C(Cl)C(Cl)(Cl)C(Cl)=C1Cl Y

Lookup FC(F)(I)C(F)(F)C(F)(F)C(F)(F)C(F)(F)C(F)(F)I Y

Item: C[C@@H]1C[C@H]2[C@@H]3CCC4=CC(=O)C=C[C@]4(C)[C@@]3(F)[C@@H](O)C[C@]2(C)[C@@]1(O)C(=O)COP(=O)(O)O N

Item: Cc1cc(CCN2CCN(c3nsc4ccccc34)CC2)cc2c1NC(=O)CC2(C)C Y

***
So what was the verdict on N#C[C@@H]1CC(F)(F)CN1C(=O)CNC1CC2CCC(C1)N2c1ncccn1 (stereo partly specified) in this test? N

Now consider CC#C[C@]1(O)CC[C@H]2[C@@H]3CCC4=CC(=O)CCC4=C3[C@@H](c3ccc(N(C)C)cc3)C[C@@]21C and answer again. Y

Moving on to the next molecule: Cc1oc(-c2ccccc2)nc1CCOc1ccc(C[C@H](Nc2ccccc2C(=O)c2ccccc2)C(=O)O)cc1 Y

What do we get for CN1CCC[C@H]1c1cccnc1 ? N

And the next one, CCCCCCCCCCCCN1CCCC1=O ? Y

What do you have for CCCCCCC(=O)O ? N

----------
Assay: CCTE_Harrill_HTTr_Apoptosis_MCF7: CCTE's 6-hour Apoptosis Assessment for the High-Throughput Transcriptomics (HTTr) Platform, in MCF-7 cells cultured in DMEM + 10% fetal bovine serum, Harrill Lab (AID 2284011)
Calls of active or inactive are those of the source. The calls were made as follows: active = hit-call score of the fitted dose curve at least 0.9, where 1 is the maximum; inactive = score below 0.9.
Log the outcome using a class from active, inactive

I would be grateful if you could indicate the recorded call for CC(O)CO (stereo not given) . inactive

Now the compound CC(C)(C)CC(C)(C)c1ccc(O)c(-n2nc3ccccc3n2)c1 inactive

Now consider Cc1oc(-c2ccccc2)nc1CCOc1ccc(C[C@H](Nc2ccccc2C(=O)c2ccccc2)C(=O)O)cc1 and answer again. inactive

// query: OC1CCCCC1 inactive

Note, next up: Cc1cc(CCN2CCN(c3nsc4ccccc34)CC2)cc2c1NC(=O)CC2(C)C active

Query C[C@@H]1C[C@H]2[C@@H]3CCC4=CC(=O)C=C[C@]4(C)[C@@]3(F)[C@@H](O)C[C@]2(C)[C@@]1(O)C(=O)COP(=O)(O)O next inactive

Another: COC(=O)CCCCC(=O)OC inactive

Further, for NC(=O)N1C(=O)C(C(=O)c2cc(Cl)cs2)c2cc(F)c(Cl)cc21 (stereo not given) ? inactive

Again, but for N#C[C@@H]1CC(F)(F)CN1C(=O)CNC1CC2CCC(C1)N2c1ncccn1 (stereo not given in full) inactive

Let us now turn to CCCCCCCC(=O)O inactive

Further cases:
Please share the test call associated with Oc1cc2ccccc2c2ccccc12 . inactive

And for CC(=O)NC1(c2cccc(F)c2)CCN(CC[C@@]2(c3ccc(Cl)c(Cl)c3)CN(c3ccccc3)C(=O)CO2)CC1 ? inactive

Same read-out for O=C1OC2(c3ccccc31)c1cc(Br)c(O)c(Br)c1Oc1c2cc(Br)c(O)c1Br ? active
